# Test system: KM12 colon
# measurement.description: NCI tumour cell line growth inhibition, 48 h
Some compounds, each annotated with its measured TGI.

Below: 8 compounds and their reported TGI.
compound | target.of.assay | measured.parameter | result.value
NC(N)=N/N=C/c1c(-c2ccc(N)cc2)nc2sccn12 | KM12 colon | TGI | > 100 µM
Cc1ccc(Cl)c2c(N=Nc3ccccc3[N+](=O)[O-])c(O)[nH]c12 | KM12 colon | TGI | > 100 µM
O=C(CCNC12CC3CC(CC(C3)C1)C2)c1ccccc1 | KM12 colon | TGI | 91.1 µM
O=C1c2ccccc2-c2c1c1ccccc1c(=O)n2CCNCCNCCNCCn1c2c(c3ccccc3c1=O)C(=O)c1ccccc1-2 | KM12 colon | TGI | 3.22 µM
Nn1c(-c2ccccc2)nn(C(=O)c2ccccc2)c1=O | KM12 colon | TGI | > 100 µM
O=C1/C(=C/c2ccccc2)N=C2Sc3c(nc[nH]c3=O)N12 | KM12 colon | TGI | > 100 µM
COC(=O)C([C@H](NC1(c2ccccc2)c2ccccc2-c2ccccc21)C(=O)OC)N(NC(=O)OCc1ccccc1)C(=O)OCc1ccccc1 (mixture of isomers) | KM12 colon | TGI | > 100 µM
O=C1CSC(c2ccc(Cl)cc2)N1c1ccc(Oc2ccc(Cl)cc2)c(Cl)c1 (centres undefined) | KM12 colon | TGI | 29.4 µM

Please look at the following compound next.
Checklist item: TGI tested on KM12 colon, entry O=C(CC(=O)c1cccc2ccccc12)C(=O)Nc1ccc(Cl)cc1 , value?
> 100 µM
